experiment: Mouse brain concentrations after oral 30 mg/Kg in nude mice with U87MG xenografts; type: in vivo; conditions: female, athymic nude (CD-1 nu/nu), mouse, brain; oral (30 mg/Kg) delivery, U87MG xenografts, Time 24 hr; read-out: HSP90 Compounds in Mouse Brain
The following compounds are shown together with reported concentration at 24 hr values.

The compound identified as `CC(C)(C)CNCCn1c(Sc2cc3c(cc2S(C)(=O)=O)OCO3)nc2c(N)nccc21` registered its concentration at 24 hr at 3 ng/g

The compound identified as `NC(=O)CCCn1c(Sc2cc3c(cc2I)OCO3)nc2c(N)nccc21` registered its concentration at 24 hr at 1.3 ng/g

The compound identified as `CN(C)c1cc2c(cc1Sc1nc3c(N)nccc3n1CCNCC(C)(C)C)OCO2` registered its concentration at 24 hr at 3.2 ng/g
